Source of measurements: BindingDB's records for doi:10.1016/j.bioorg.2013.09.002

- SYSTEM UNDER TEST: Calpain-2 catalytic subunit (Homo sapiens, UniProt P17655)
- Sequence (P17655 whole entry): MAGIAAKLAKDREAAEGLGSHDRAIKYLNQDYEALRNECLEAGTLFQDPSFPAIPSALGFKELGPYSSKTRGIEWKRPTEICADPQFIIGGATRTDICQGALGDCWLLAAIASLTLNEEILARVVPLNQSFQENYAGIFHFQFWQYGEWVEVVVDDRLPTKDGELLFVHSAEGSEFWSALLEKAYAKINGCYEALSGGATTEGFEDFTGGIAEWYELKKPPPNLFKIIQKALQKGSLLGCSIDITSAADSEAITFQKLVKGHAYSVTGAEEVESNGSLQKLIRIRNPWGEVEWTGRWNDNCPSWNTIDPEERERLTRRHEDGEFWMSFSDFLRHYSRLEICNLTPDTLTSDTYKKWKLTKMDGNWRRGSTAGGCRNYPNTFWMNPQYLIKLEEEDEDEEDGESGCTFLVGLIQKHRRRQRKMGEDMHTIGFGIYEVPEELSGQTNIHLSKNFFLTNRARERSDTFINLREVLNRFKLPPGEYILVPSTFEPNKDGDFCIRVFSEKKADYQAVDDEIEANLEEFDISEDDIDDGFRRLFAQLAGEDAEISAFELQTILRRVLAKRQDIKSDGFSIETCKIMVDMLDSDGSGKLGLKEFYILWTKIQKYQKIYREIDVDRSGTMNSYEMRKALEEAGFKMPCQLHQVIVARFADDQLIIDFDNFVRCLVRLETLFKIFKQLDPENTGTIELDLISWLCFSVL
- PROTOCOL SUMMARY: m-Calpain Inhibition Assay
- MEASUREMENT SETUP: pH 7.5; 25 °C
Where a SMILES comes first, the peptide text is derived from it. The star is where a group is joined. Cbz = O=C(OCc1ccccc1)*; CH2F = FC*
IC50: recorded values

# COMPOUND, SYSTEM UNDER TEST, IC50
data = [
    ("O=C(/C=C/c1ccncc1)c1ccc(O)cc1O", "Calpain-2 catalytic subunit (Homo sapiens, UniProt P17655)", "> 100 µM"),
    ("O=C(NC(Cc1ccccc1)C(=O)NC(Cc1ccccc1)C(=O)CF)OCc1ccccc1 (stereo not drawn) (Cbz-Phe-Phe-CH2F; configuration not given here)", "Calpain-2 catalytic subunit (Homo sapiens, UniProt P17655)", "0.418 µM"),
    ("O=C(/C=C/c1ccco1)c1cc(O)cc(O)c1", "Calpain-2 catalytic subunit (Homo sapiens, UniProt P17655)", "> 100 µM"),
    ("O=C(/C=C/c1cccnc1)c1ccc(O)cc1O", "Calpain-2 catalytic subunit (Homo sapiens, UniProt P17655)", "> 100 µM"),
]

====

- SYSTEM UNDER TEST: Calpain-1 catalytic subunit (Homo sapiens)
- PROTOCOL SUMMARY: µ-Calpain Inhibition Assay
- MEASUREMENT SETUP: pH 7.5; 25 °C
REPORTED ENDPOINT: IC50

# SMILES STR, RESULT
data = [
    ("O=C(/C=C/c1cccs1)c1ccc(O)cc1O", "56.2 µM"),
    ("O=C(/C=C/c1ccc(O)cc1O)c1cccs1", "> 100 µM"),
    ("O=C(/C=C/c1ccc(O)cc1O)c1ccco1", "> 100 µM"),
]

====

- SYSTEM UNDER TEST: Procathepsin L (Homo sapiens, UniProt P07711)
- Sequence (P07711 whole entry): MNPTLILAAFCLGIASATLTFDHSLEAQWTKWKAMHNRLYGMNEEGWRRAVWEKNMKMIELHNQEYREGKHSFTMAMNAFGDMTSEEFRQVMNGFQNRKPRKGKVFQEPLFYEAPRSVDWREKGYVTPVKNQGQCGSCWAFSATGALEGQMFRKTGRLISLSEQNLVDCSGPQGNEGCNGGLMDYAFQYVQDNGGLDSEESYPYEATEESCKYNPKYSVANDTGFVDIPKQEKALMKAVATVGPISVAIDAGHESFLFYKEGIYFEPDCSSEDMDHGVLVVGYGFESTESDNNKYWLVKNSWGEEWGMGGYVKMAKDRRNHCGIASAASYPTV
- PROTOCOL SUMMARY: Cathepsin L Inhibition Assay
- MEASUREMENT SETUP: pH 5.5; 37 °C
REPORTED ENDPOINT: IC50 (µM)

# SMILES STR, U, BOUND SIGN, RESULT
rows = [
    ("O=C(/C=C/c1ccco1)c1cc(O)cc(O)c1", "µM", ">", 100),
    ("O=C(/C=C/c1ccco1)c1ccc(O)cc1O", "µM", "=", 90.5),
    ("O=C(/C=C/c1cccs1)c1cc(O)cc(O)c1", "µM", ">", 100),
    ("O=C(/C=C/c1ccncc1)c1ccc(O)cc1O", "µM", "=", 44.4),
    ("O=C(/C=C/c1ccc(O)cc1O)c1ccco1", "µM", "=", 2.87),
    ("O=C(/C=C/c1ccoc1)c1cc(O)cc(O)c1", "µM", ">", 100),
]

====

- SYSTEM UNDER TEST: Calpain-2 catalytic subunit (Homo sapiens)
- PROTOCOL SUMMARY: m-Calpain Inhibition Assay
- MEASUREMENT SETUP: pH 7.5; 25 °C
pIC50: −log10 of the molar value. Where a SMILES comes first, the peptide text is derived from it. The star is where a group is joined. Cbz = O=C(OCc1ccccc1)*

# COMPOUND, SYSTEM UNDER TEST, BOUND SIGN, pIC50
data = [
    ("O=C(/C=C/c1ccc(O)cc1O)c1ccco1", "Calpain-2 catalytic subunit (Homo sapiens)", "<", 4.00),
    ("O=C(/C=C/c1ccc(O)cc1O)c1cccs1", "Calpain-2 catalytic subunit (Homo sapiens)", "=", 4.22),
    ("O=C(/C=C/c1ccoc1)c1cc(O)cc(O)c1", "Calpain-2 catalytic subunit (Homo sapiens)", "<", 4.00),
    ("O=C(/C=C/c1cccs1)c1cc(O)cc(O)c1", "Calpain-2 catalytic subunit (Homo sapiens)", "<", 4.00),
    ("O=C(/C=C/c1cccs1)c1ccc(O)cc1O", "Calpain-2 catalytic subunit (Homo sapiens)", "=", 4.40),
    ("CC(C)C(NC(=O)OCc1ccccc1)C(=O)NC(C=O)Cc1ccccc1 (stereo not drawn) (Cbz-Val-Phe-aldehyde; configuration not given here)", "Calpain-2 catalytic subunit (Homo sapiens)", "=", 6.82),
    ("O=C(/C=C/c1ccco1)c1ccc(O)cc1O", "Calpain-2 catalytic subunit (Homo sapiens)", "=", 4.60),
    ("O=C(/C=C/c1ccccc1)c1cc(O)cc(O)c1", "Calpain-2 catalytic subunit (Homo sapiens)", "<", 4.00),
    ("O=C(/C=C/c1ccccn1)c1ccc(O)cc1O", "Calpain-2 catalytic subunit (Homo sapiens)", "<", 4.00),
    ("CCCNC(=O)[C@H]1O[C@@H]1C(=O)N[C@H](C(=O)N1CCC[C@H]1C(=O)O)[C@@H](C)CC", "Calpain-2 catalytic subunit (Homo sapiens)", "<", 4.00),
    ("O=C(/C=C/c1ccsc1)c1cc(O)cc(O)c1", "Calpain-2 catalytic subunit (Homo sapiens)", "=", 4.01),
]

====

- SYSTEM UNDER TEST: Calpain-1 catalytic subunit (Homo sapiens)
- Sequence (P07384 whole entry): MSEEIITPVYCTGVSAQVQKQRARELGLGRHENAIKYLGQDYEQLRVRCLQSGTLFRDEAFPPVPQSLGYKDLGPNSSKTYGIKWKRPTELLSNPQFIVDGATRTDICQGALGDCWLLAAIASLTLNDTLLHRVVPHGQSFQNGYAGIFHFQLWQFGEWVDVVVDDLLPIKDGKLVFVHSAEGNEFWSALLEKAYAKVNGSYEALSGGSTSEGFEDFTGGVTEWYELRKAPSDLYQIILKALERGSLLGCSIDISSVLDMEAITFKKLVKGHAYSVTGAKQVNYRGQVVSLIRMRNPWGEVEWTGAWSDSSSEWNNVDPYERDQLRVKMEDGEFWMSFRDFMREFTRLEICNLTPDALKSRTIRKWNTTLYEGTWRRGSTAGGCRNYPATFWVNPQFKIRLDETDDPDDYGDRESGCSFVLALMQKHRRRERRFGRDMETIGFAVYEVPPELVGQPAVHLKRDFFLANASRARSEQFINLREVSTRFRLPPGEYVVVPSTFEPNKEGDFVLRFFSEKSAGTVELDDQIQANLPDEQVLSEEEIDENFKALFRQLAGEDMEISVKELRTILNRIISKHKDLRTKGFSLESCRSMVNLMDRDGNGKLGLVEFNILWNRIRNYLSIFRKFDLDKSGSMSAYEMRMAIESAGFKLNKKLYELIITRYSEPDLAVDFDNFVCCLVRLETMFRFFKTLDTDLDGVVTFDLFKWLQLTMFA
- PROTOCOL SUMMARY: µ-Calpain Inhibition Assay
- MEASUREMENT SETUP: pH 7.5; 25 °C
- Method: The reaction was initiated by sequential addition of substrate A, µ-calpain, each compound, and finally a CaCl2 solution. The reaction mixture (100 µL) was incubated at room temperature for 30 min with shaking. Fluorescence intensities were measured at 320 nm excitation and 420 nm emission wavelengths.
Where a SMILES comes first, the peptide text is derived from it. The star is where a group is joined. Cbz = O=C(OCc1ccccc1)*; CH2F = FC*

# COMPOUND, SYSTEM UNDER TEST, IC50
data = [
    ("O=C(/C=C/c1cccnc1)c1ccc(O)cc1O", "Calpain-1 catalytic subunit (Homo sapiens)", "> 100 µM"),
    ("CCCNC(=O)[C@H]1O[C@@H]1C(=O)N[C@H](C(=O)N1CCC[C@H]1C(=O)O)[C@@H](C)CC [CA074]", "Calpain-1 catalytic subunit (Homo sapiens)", "> 100 µM"),
    ("O=C(/C=C/c1ccccn1)c1ccc(O)cc1O", "Calpain-1 catalytic subunit (Homo sapiens)", "> 100 µM"),
    ("O=C(NC(Cc1ccccc1)C(=O)NC(Cc1ccccc1)C(=O)CF)OCc1ccccc1 (stereo not drawn) (Cbz-Phe-Phe-CH2F; configuration not given here)", "Calpain-1 catalytic subunit (Homo sapiens)", "0.397 µM"),
    ("O=C(/C=C/c1ccoc1)c1cc(O)cc(O)c1", "Calpain-1 catalytic subunit (Homo sapiens)", "> 100 µM"),
    ("O=C(/C=C/c1cccs1)c1cc(O)cc(O)c1", "Calpain-1 catalytic subunit (Homo sapiens)", "> 100 µM"),
    ("O=C(/C=C/c1ccccc1)c1cc(O)cc(O)c1", "Calpain-1 catalytic subunit (Homo sapiens)", "> 100 µM"),
    ("O=C(/C=C/c1ccsc1)c1cc(O)cc(O)c1", "Calpain-1 catalytic subunit (Homo sapiens)", "> 100 µM"),
    ("O=C(/C=C/c1ccncc1)c1ccc(O)cc1O", "Calpain-1 catalytic subunit (Homo sapiens)", "> 100 µM"),
    ("O=C(/C=C/c1ccco1)c1ccc(O)cc1O", "Calpain-1 catalytic subunit (Homo sapiens)", "86.7 µM"),
    ("O=C(/C=C/c1ccco1)c1cc(O)cc(O)c1", "Calpain-1 catalytic subunit (Homo sapiens)", "> 100 µM"),
]
